Where do the numbers come from? From patent US9914730B2.

A collection of compounds and their measured pIC50
# Tested System: full-length human PKCι (Homo sapiens, UniProt P41743)
# Construct: Recombinant, full-length human PKCι expressed in Sf21 insect cells is also commercially available; purchased; host or cells: Sf21 insect cells
# Sequence (P41743 whole entry): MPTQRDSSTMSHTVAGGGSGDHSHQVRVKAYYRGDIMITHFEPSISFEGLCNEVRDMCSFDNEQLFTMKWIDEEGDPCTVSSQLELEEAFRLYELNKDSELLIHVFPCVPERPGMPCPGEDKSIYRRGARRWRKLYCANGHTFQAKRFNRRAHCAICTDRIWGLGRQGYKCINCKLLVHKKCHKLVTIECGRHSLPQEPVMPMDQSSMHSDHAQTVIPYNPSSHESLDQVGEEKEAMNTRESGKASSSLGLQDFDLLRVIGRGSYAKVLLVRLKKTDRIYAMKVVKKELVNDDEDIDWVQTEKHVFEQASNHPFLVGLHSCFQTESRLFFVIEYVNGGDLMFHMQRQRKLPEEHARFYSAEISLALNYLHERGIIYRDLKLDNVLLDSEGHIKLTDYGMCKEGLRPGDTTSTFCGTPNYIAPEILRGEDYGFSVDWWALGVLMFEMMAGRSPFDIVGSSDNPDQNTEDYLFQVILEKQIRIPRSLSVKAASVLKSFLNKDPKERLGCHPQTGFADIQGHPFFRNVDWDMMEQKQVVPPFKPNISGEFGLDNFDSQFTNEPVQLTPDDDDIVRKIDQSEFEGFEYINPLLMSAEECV
# Experiment Description: PKCι IC50 IMAP assay, full-length PKCι at 150 μM ATP
# Assay type: biochemical
# Particulars: read-out: IC50 in IMAP assay against full length PKCi at 150 μM ATP
pIC50: −log10 of the molar value.

> print(dat)
                                   compound  value.measured
1  Fc1cc(C2CC2)cc(F)c1Nc1cc(-c2nc(N3CCNCC3)c3c(C4CC4)cncc3n2)ccn1 [Example 603]          > 7.00
2  COc1cncc2nc(N3CCOC(COc4ccccc4)C3)nc(N3CCNCC3)c12 (centres unmarked) [Example 1004]    5.00 to 6.00
3  Fc1ccccc1Nc1cc(-c2nc(N3CCNCC3)c3c(Cl)cncc3n2)ccn1 [Example 247]    6.00 to 7.00
4  COc1cncc2nc(-c3ccnc(Nc4ccccc4)c3)nc(NCCC(N)=O)c12 [Example 458]    5.00 to 6.00

Per the record, COc1cncc2nc(-c3ccnc(Nc4ccc(N5CCOCC5)nc4)c3)nc(N3CCNCC3)c12 [Example 375] has pIC50 of > 7.00
